# Test system: OVCAR-8 ovarian
# runDescription: NCI tumour cell line growth inhibition, 48 h
measuredQuantity: TGI

# compound, testSystem, result
data = [
    ("CCCCn1cnnc1NS(=O)(=O)c1cc(C)c(Cl)cc1SCC(=O)O", "OVCAR-8 ovarian", "> 10 µM"),
    ("COc1ccc(C2=NN(C(=O)COc3ccc(Cl)cc3)C(O)(c3ccc(Cl)cc3)C2)cc1 (stereo not given)", "OVCAR-8 ovarian", "> 100 µM"),
    ("O=C1OC(CC(=O)c2ccc(Cl)cc2Cl)C(Cl)=C1Cl (stereo not given)", "OVCAR-8 ovarian", "> 60.2 µM"),
    ("C(=Nc1ccc(-c2cc(-c3ccccc3)nc3ccc4ccccc4c23)cc1)c1ccccc1", "OVCAR-8 ovarian", "> 100 µM"),
    ("Nc1ccc(C2NC(=O)Cc3c2ccc2ccccc32)cc1 (stereo not given)", "OVCAR-8 ovarian", "> 100 µM"),
    ("NC(=O)c1oc([N+](=O)[O-])c(-c2ccccc2)c1-c1ccccc1", "OVCAR-8 ovarian", "68.2 µM"),
    ("Cc1ccc2c(c1C)-c1c(ccc(C)c1C)C(=O)C2=O", "OVCAR-8 ovarian", "0.905 µM"),
    ("CN(C)c1ccc(-c2cc(-c3ccc(Nc4nc(Nc5ccccc5)nc(Nc5ccc(Cl)cc5)n4)cc3)nc(N)n2)cc1", "OVCAR-8 ovarian", "> 100 µM"),
    ("OCC1OC(Oc2cc(O)cc(/C=C/c3ccc(O)cc3)c2)C(O)C(O)C1O (stereo not given)", "OVCAR-8 ovarian", "> 100 µM"),
    ("O/N=C/c1cc2c(cc1Br)OCO2", "OVCAR-8 ovarian", "> 100 µM"),
]

* * *

Readings of log10(TGI) for the listed compounds
# System: OVCAR-5 ovarian
# runDescription: NCI tumour cell line growth inhibition, 48 h
measuredQuantity: log10(TGI) (log10 of the value in µM)

# compound, measuredQuantity, numericValue
measured = [
    ("NC1=C(Br)C(=O)c2ncccc2C1=O", "log10(TGI)", 0.54),
    ("C=CC1=C[C@@H]2[C@@H]3O[C@]4(CC[C@H](O4)[C@@H](C)C[C@@H](O)C3=O)C[C@H](O)C3=NCC[C@@]32CC1", "log10(TGI)", -2.29),
    ("CCCc1c(O)c(=O)c2c(OC)cc(OC)c3c4c(OC)cc(OC)c5c(=O)c(O)c(CCC)c(c1c23)c54", "log10(TGI)", 1.29),
    ("CCOP(=O)(OCC)/C(C#N)=C/c1ccc(-c2ccc(F)cc2F)o1", "log10(TGI)", 1.50),
    ("CCOP1(=O)C=C(Sc2ccc([N+](=O)[O-])cc2[N+](=O)[O-])C(C)(C)O1 (stereo not given)", "log10(TGI)", 1.64),
    ("Nc1ccc2nc3ccc(N)cc3[n+](-c3ccccc3)c2c1", "log10(TGI)", 1.91),
    ("N=c1c2c(-c3ccccc3)c(-c3ccccc3)n(Cc3ccccc3)c2ncn1CCCO", "log10(TGI)", 1.37),
    ("O=C1c2ccc3c4c5ccc(c24)C(=O)N1CCCOCCCCOCCCNCc1ccc(cc1)CNCCCOCCCCOCCCN(C3=O)C5=O", "log10(TGI)", 0.26),
    ("Cc1nc2sc(C(=O)Nc3cccc4ccccc34)c(N)c2cc1C(=O)/C=C/c1ccccc1", "log10(TGI)", 0.42),
    ("O=Cc1cn(Cc2cccc(Cl)c2)c2ccccc12", "log10(TGI)", -0.30),
    ("CC(CN1CCN(C)CC1)CN1c2ccccc2Sc2ccc(C(F)(F)F)cc21 (stereo not given)", "log10(TGI)", 0.50),
    ("CS/C(=N\\C(=S)Nc1ccccc1)Nc1ccccc1", "log10(TGI)", 1.89),
    ("C=CCNCCCN1C(=O)c2ccc3c4c(ccc(c24)C1=O)C(=O)N(CCCNCC=C)C3=O", "log10(TGI)", 0.69),
    ("C=C[C@H]1CC[C@H]2[C@@H]3CC=C4C[C@@H](OC5OCC(O)C(O)C5O)CC[C@]4(C)[C@H]3CC[C@]12C (stereo not given in full)", "log10(TGI)", 1.45),
    ("CN(CC(=O)O)c1ccc(/C=C/c2ccnc3ccccc23)cc1", "log10(TGI)", 1.97),
    ("COc1ccc2c(c1)c(-c1nc(-c3c[nH]c4ncccc34)cs1)cn2CCCCN1CCOCC1", "log10(TGI)", 0.60),
]

* * *

Readings of TGI for the listed molecules
# Tested on: RXF-631 renal
# runDescription: NCI tumour cell line growth inhibition, 48 h
measuredQuantity: TGI

# molecule, result
measured = [
    ("O/N=C/c1cc2c(cc1Br)OCO2", "> 100 µM"),
    ("Nc1c(Br)c(=O)[nH]c(=O)n1COCCO", "> 100 µM"),
    ("O=c1c(Sc2c(O)c3ccccc3c3ccccc3c2=O)c(O)c2ccccc2c2ccccc12", "> 100 µM"),
    ("CCCCCCCCCCC(O)[C@H]1CCC(C2CC[C@H]([C@H](O)CCCCCCCCCCC(O)CC3=CC(C)OC3=O)O2)O1 (stereo not given in full)", "8.13 µM"),
    ("COc1ccc(C2=NN(C(=O)COc3ccc(Cl)cc3)C(O)(c3ccc(Cl)cc3)C2)cc1 (stereo not given)", "> 100 µM"),
    ("CCOC(=O)C1=C(NNC(=O)Cc2ccccc2)CSC1=Nc1ccccc1", "> 100 µM"),
    ("O=C(/C=C/c1ccc(Cl)c(Cl)c1)c1ccc(F)cc1", "> 100 µM"),
    ("Cc1cccc(NC(=O)c2cc3cc(N=Nc4ccccc4Cl)ccc3oc2=O)c1", "> 100 µM"),
    ("C/C([O-])=C1\\Cc2ccccc2C1=O.C/C([O-])=C1\\Cc2ccccc2C1=O.CC[O-].CC[O-].[Ti+4]", "29.1 µM"),
    ("NC1=C(Br)C(=O)c2ncccc2C1=O", "3.73 µM"),
]

* * *

Readings of TGI for the listed compounds
# Test system: MCF7 breast
# runDescription: NCI tumour cell line growth inhibition, 48 h
measuredQuantity: TGI

# compound, measuredQuantity, result
rows = [
    ("COc1ccc(-c2nnc(SCC(=O)Nc3ccc(/C(C)=N\\O)cc3)n2-c2ccccc2)cc1OC", "TGI", "> 100 µM"),
    ("CC(=O)CCC(=O)C(=[N+]=[N-])S(=O)(=O)c1ccccc1", "TGI", "> 100 µM"),
    ("c1cc(CCN2CCCCC2)ccn1", "TGI", "> 100 µM"),
    ("NC(=O)c1cc([N+](=O)[O-])c(Cl)c([N+](=O)[O-])c1", "TGI", "4.06 µM"),
    ("CCOC(=O)c1cc(C2CCN(CC(C)CC)C2=S)c(-c2cc(C)no2)[nH]1 (centres undefined)", "TGI", "> 100 µM"),
    ("Cc1cc(OCc2nn(CN3CCN(C)CC3)c(=S)n2/N=C/c2ccc(-c3ccc(Cl)cc3Cl)o2)ccc1Cl", "TGI", "> 100 µM"),
    ("N#Cc1cccc(C(=O)Nc2cccc(NC(=O)c3cccc(C#N)c3)c2)c1", "TGI", "> 100 µM"),
    ("CCO[C@@H]1CCC(S(=O)c2ccc(C)cc2)=CO1 (some centres undefined)", "TGI", "> 100 µM"),
    ("C=C(C)[C@@H]1CC[C@]2(C(=O)NCCNCCNCCN)CC[C@]3(C)[C@H](CC[C@@H]4[C@@]5(C)CC[C@H](O)C(C)(C)[C@@H]5CC[C@]43C)[C@@H]12", "TGI", "29.3 µM"),
    ("COc1ccc(-c2cc(-c3ccc(Nc4ccnc5cc(Cl)ccc45)cc3)nc(N)c2C#N)cc1", "TGI", "> 100 µM"),
    ("N#Cc1c(-c2ccc(Cl)cc2)c(C#N)c(=O)n(NS(=O)(=O)c2ccccc2)c1S", "TGI", "> 100 µM"),
    ("CCOC(=O)NC(C(=O)OCC)C(F)(F)F (centres undefined)", "TGI", "> 100 µM"),
    ("COc1cc(Cn2c(=S)ss/c2=N\\C(=S)N(C)C)cc(OC)c1OC", "TGI", "> 100 µM"),
    ("NC(=O)NO", "TGI", "> 2460 µM"),
    ("CN(CC(=O)O)c1ccc(/C=C/c2ccnc3ccccc23)cc1", "TGI", "35.2 µM"),
    ("CC(=O)Oc1ccc2c(C)cc(=O)oc2c1", "TGI", "> 100 µM"),
    ("COC(=O)c1cc(-c2cc(OC)c(OC)c(OC)c2)[nH]c1N/N=C/c1c(Cl)cccc1Cl", "TGI", "53 µM"),
    ("Cn1ccc2c(c1=O)C(=O)c1nccc3c1c-2nc1ccccc13", "TGI", "2.34 µM"),
    ("CCCc1c(O)c(=O)c2c(OC)cc(OC)c3c4c(OC)cc(OC)c5c(=O)c(O)c(CCC)c(c1c23)c54", "TGI", "15.3 µM"),
    ("O=C1/C(=C/c2ccccc2F)CNC/C1=C\\c1ccccc1F", "TGI", "1.39 µM"),
    ("COc1cc(NCc2ccc3nc(-c4ccccc4)c(N)nc3c2)cc(OC)c1OC", "TGI", "55.9 µM"),
    ("CC1(C)C2CCC(N)(C2)C1N (centres undefined)", "TGI", "> 100 µM"),
    ("CC(C)[C@@]12C[C@@H](OC(=O)COC(=O)/C=C/c3ccccc3)[C@@](C)(O1)[C@@H]1CC[C@@H](C)[C@H]1[C@@H]2OC(=O)/C=C/c1ccccc1", "TGI", "> 100 µM"),
    ("OCC1OC(NCCNCCNC2OC(CO)C(O)C(O)C2O)C(O)C(O)C1O (centres undefined)", "TGI", "> 100 µM"),
]
